biological target: mcr-1 protein (Escherichia coli, UniProt A0A0R6L508)
Sequence (A0A0R6L508 whole entry): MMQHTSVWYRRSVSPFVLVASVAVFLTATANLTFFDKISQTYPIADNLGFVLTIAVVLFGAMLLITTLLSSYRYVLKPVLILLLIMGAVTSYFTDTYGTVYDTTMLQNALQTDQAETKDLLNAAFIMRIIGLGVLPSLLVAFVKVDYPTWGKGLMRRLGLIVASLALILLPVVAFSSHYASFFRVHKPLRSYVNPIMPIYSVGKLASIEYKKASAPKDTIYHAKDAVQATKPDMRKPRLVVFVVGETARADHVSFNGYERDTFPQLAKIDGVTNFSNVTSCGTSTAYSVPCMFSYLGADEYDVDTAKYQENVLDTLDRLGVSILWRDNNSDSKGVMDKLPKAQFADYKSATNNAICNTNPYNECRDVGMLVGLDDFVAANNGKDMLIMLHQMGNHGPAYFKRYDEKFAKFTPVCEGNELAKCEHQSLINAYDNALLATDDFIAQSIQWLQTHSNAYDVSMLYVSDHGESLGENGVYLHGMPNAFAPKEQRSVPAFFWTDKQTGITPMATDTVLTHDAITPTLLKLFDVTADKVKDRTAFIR
measurement.kind: Kd
Reply with the number and its unit after it.

Incoming: What value of Kd has been recorded for this entry: O=c1cc(-c2ccc(O)cc2)oc2cc(O)cc(O)c12
Outgoing: 4.35 µM
